The measurements presented in this section are drawn from paper PMC9352680.

# Assay system: T1, PUF4 RNA-binding domain (Saccharomyces cerevisiae, UniProt P25339 537-888)
# T1 sequence: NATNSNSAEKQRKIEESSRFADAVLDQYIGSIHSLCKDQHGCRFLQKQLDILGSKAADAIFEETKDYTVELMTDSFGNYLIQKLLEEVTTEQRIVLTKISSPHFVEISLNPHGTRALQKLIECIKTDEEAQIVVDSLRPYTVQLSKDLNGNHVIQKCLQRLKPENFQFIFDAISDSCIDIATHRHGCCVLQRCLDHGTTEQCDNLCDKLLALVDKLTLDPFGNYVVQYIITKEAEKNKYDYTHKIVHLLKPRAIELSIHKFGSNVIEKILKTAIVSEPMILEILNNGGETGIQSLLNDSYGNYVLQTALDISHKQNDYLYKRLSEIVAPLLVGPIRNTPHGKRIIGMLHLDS
# Experimental protocol: Mg; RNA-MaP; 20 mM Na-HEPES pH 7.4, 30 mM KOAc, 0.75 mM MgCl2, 0.1% Tween-20, 5% glycerol, 0.1 mg/mL BSA, 2 mM DTT; 25 C; 0.0125-409.6 nM protein
# Experimental context: tags: N-His6-TEV cleaved; C-SNAP kept, Cy3B-labelled; label: tethered on chip by stalled RNA polymerase
Recorded Kd by entry
Write down the numeric answer in nM and omit the unit.

These recorded examples may help you get a feel for the data.
{"Binder": "Ib_S2_P4E.1_K4.1_C4.1_H4.1_A4.1_[T7A]_F4.1_[T8C]_T4.1 (ssRNA) RNA: UUUGAUUAAUAUGAUAUCGUUCUUUCUUGUAUAACAUUCUUUCUCGAUAUCAUAUUAAUCUUU", "Kd [nM]": 18.8}
{"Binder": "UCUCUUUGUAUAGUUUCUCUU (ssRNA) [Ic_S1_P4E.1_K4.1_C4.1_H4.1_A4.1_[T7G]_F4.1_[A9T]_T4.1]", "Kd [nM]": 9.53}
{"Binder": "UCUCUUUGUAUUAUAUUCUCUU (ssRNA) [Ib_S1_P5E.1_K5.1_C5.1_H5.1_A5.1_F5.1_[T9A]_[A10T]_T5.1]", "Kd [nM]": 1.1}

Here is the next item to consider.
Look up and state reported Kd for Id_ii_S4_P3E.4_K3.3_C3.2_[C-2A]_H3.3_A3.1_F3.1_T3.2_[T9A]_[A10C] (ssRNA) RNA: UUUGACAACUGAUCGUUCUUUCUAUACACUAUAACUUCUUUCUCGAUCAGUUGUCUUU 26.4
